assay: method code SF-AS, from DOI: 10.1021/acs.inorgchem.5b01238, PMID: 26280387

# molecular_string, logP
records = [
    ("CSC(=S)C=C(O)c1cccc(O)c1", 1.71),
    ("CSC(=S)C=C(O)c1ccc(O)cc1", 1.9),
    ("CCSC(=S)C=C(O)c1cccc(O)c1", 1.73),
]

* * *

readout: logP

# molecular_string, readout, value_reported
data = [
    ("CO[C@@H]1[C@@H](O[C@@H]2O[C@H](C)[C@@H](O)[C@H](N(C)C)[C@H]2O)[C@@H](CC=O)C[C@@H](C)C(=O)/C=C\\[C@H]2O[C@H]2C[C@@H](C)OC(=O)C[C@H]1OC(C)=O", "logP", 0.3),
    ("CC[C@H]1OC(=O)[C@H](C)[C@@H](O[C@H]2C[C@@](C)(OC)[C@@H](O)[C@H](C)O2)[C@H](C)[C@@H](O[C@@H]2O[C@H](C)C[C@H](N(C)C)[C@H]2O)[C@](C)(O)C[C@@H](C)C(=O)[C@H](C)[C@@H](O)[C@]1(C)O", "logP", 3.06),
    ("CC[C@H]1OC(=O)C[C@@H](O)[C@H](C)[C@@H](O[C@@H]2O[C@H](C)C[C@H](N(C)C)[C@H]2O)[C@@H](CC=O)C[C@@H](C)C(=O)/C=C/[C@]2(C)O[C@H]2[C@@H]1C", "logP", 2.19),
]
